Target Desc: T1, Tat39 (Tat3B; HIV Tat residues 48-86) (HIV-1, UniProt P04608 P04608:48-86)
T1 chain: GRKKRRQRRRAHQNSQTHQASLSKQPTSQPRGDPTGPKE
Assay Details: EMSA; 1:1 Kd; 2-3:1 Kd 200 nM; 10 mM Tris pH 7.5, 70 mM NaCl, 4 C
Measurement Conditions: protein: synthetic; tags: synthetic 39-mer peptide made by solid phase synthesis, UCSF Biotechnology Resource Core; label: 5'-32P; hairpin with bulge
Observable: pKd
As a rule, pKd stands for the negative log10 of the concentration, concentration in M.

Give its pKd value. Item: TAR 59-mer (1-59) (ssRNA) RNA: GGGUCUCUCUGGUUAGACCAGAUCUGAGCCUGGGAGCUCUCUGGCUAACUAGGGAACCC
7.40
